Could you please report measured CC50 at 3 days for the items listed next?
- protocol text: Cytotoxicity assay
- Assay type: cell-based
- setup conditions: human

Solved entries:
- compound: "CCOC(=O)N[C@H](C(=O)N1CCC[C@H]1C(=O)Nc1cccc(C#CC#Cc2cccc(NC(=O)[C@@H]3CCCN3C(=O)[C@@H](NC(=O)OCC)[C@@H](C)CC)c2)c1)[C@H](C)CC"
  measured result: "> 200 µM"
- compound: "CC(C)COC(=O)N[C@H](C(=O)N1CCC[C@H]1C(=O)Nc1cccc(C#CC#Cc2cccc(NC(=O)[C@@H]3CCCN3C(=O)[C@@H](NC(=O)OCC(C)C)C(C)C)c2)c1)C(C)C"
  measured result: "> 20 µM"
- compound: "CCCCOC(=O)N[C@H](C(=O)N1CCC[C@H]1C(=O)Nc1ccc(C#CC#Cc2ccc(NC(=O)[C@@H]3CCCN3C(=O)[C@@H](NC(=O)OCCCC)C(C)C)cc2)cc1)C(C)C"
  measured result: "> 20 µM"

Report CC50 at 3 days for each item below.
1. CCOC(=O)N[C@H](CC(C)C)C(=O)N1CCC[C@@H]1C(=O)Nc1ccc(C#CC#Cc2ccc(NC(=O)[C@H]3CCCN3C(=O)[C@@H](CC(C)C)NC(=O)OCC)cc2)cc1
2. CC(C)[C@H](NC(=O)OCc1ccccc1)C(=O)N1CCC[C@H]1C(=O)Nc1cccc(C#CC#Cc2cccc(NC(=O)[C@@H]3CCCN3C(=O)[C@@H](NC(=O)OCc3ccccc3)C(C)C)c2)c1
3. CCOC(=O)N[C@H](C(=O)N1CCC[C@H]1C(=O)Nc1ccc(C#CC#Cc2ccc(NC(=O)[C@@H]3CCCN3C(=O)[C@@H](NC(=O)OCC)C(C)CC)cc2)cc1)C(C)CC (stereo partly shown)
4. CCCCOC(=O)N[C@H](C(=O)N1CCC[C@H]1C(=O)Nc1cccc(C#CC#Cc2cccc(NC(=O)[C@@H]3CCCN3C(=O)[C@@H](NC(=O)OCCCC)C(C)C)c2)c1)C(C)C
5. CCC(C)[C@H](NC(=O)OCc1ccccc1)C(=O)N1CCC[C@H]1C(=O)Nc1ccc(C#CC#Cc2ccc(NC(=O)[C@@H]3CCCN3C(=O)[C@@H](NC(=O)OCc3ccccc3)C(C)CC)cc2)cc1 (stereo partly shown)
6. CCCCOC(=O)N[C@@H](CC(C)C)C(=O)N1CCC[C@H]1C(=O)Nc1ccc(C#CC#Cc2ccc(NC(=O)[C@@H]3CCCN3C(=O)[C@H](CC(C)C)NC(=O)OCCCC)cc2)cc1
7. CCOC(=O)N[C@H](CC(C)C)C(=O)N1CCC[C@H]1C(=O)Nc1cccc(C#CC#Cc2cccc(NC(=O)[C@@H]3CCCN3C(=O)[C@@H](CC(C)C)NC(=O)OCC)c2)c1
8. CCOC(=O)N[C@H](C(=O)N1CCC[C@@H]1C(=O)Nc1cccc(C#CC#Cc2cccc(NC(=O)[C@H]3CCCN3C(=O)[C@@H](NC(=O)OCC)C(C)C)c2)c1)C(C)C

[A]
1: > 10 µM; 2: > 10 µM; 3: > 10 µM; 4: > 10 µM; 5: > 10 µM; 6: > 10 µM; 7: > 200 µM; 8: > 10 µM

Report CC50 at 3 days for each item below.
1. COC(=O)N[C@H](C(=O)N1CCC[C@H]1C(=O)Nc1cccc(C#CC#Cc2cccc(NC(=O)[C@@H]3CCCN3C(=O)[C@@H](NC(=O)OC)C(C)C)c2)c1)C(C)C
2. CCOC(=O)N[C@@H](C(=O)N1CCC[C@H]1C(=O)Nc1ccc(C#CC#Cc2ccc(NC(=O)[C@@H]3CCCN3C(=O)[C@H](NC(=O)OCC)C(C)C)cc2)cc1)C(C)C

[A]
1: > 200 µM; 2: 70.6 µM
